# Experimental System: Keap1/NRF2 (Homo sapiens, UniProt Q14145)
# Construct: Keap1 (321-609) is diluted to 40 nM (2×) in 1× assay buffer
# Sequence (Q14145 321-609): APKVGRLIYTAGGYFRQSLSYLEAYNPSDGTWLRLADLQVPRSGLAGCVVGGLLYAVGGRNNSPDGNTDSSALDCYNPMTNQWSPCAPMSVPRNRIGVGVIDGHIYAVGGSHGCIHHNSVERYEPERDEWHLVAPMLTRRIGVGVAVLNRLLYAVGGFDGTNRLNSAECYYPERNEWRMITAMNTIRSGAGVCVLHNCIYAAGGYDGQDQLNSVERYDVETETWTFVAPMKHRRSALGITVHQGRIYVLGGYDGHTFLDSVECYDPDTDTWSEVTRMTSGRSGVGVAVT
# Experiment Description: NRF2-Keap1 FP Assay (Kelch domain (321-609) of Keap1, TAMRA-labeled NRF2 ETGE peptide)
# Test Parameters: Keap1 (321-609) 20 nM, Tamra labeled peptide 8 nM
pIC50: −log10 of the molar value. Counter-ions that a name gives are not always drawn.
Parameter: pIC50

Cn1cc([C@@H]2C[C@H]2c2c(C(=O)O)cnn2-c2cccc(C3CCCN(C(=O)CC4CCCCC4)C3)c2)nn1 (stereo partly drawn) [Example 31] :: 6.00 to 7.00
CCCCC1CCc2cnn([C@@H]3CCC[C@@H](c4cccc(-n5ncc(C(=O)O)c5C5CC5)c4)C3)c21 (stereo in doubt) [Example 37] :: 6.00 to 7.00
CC1(C)CCc2cnn([C@H]3CCC[C@@H](c4cccc(-n5ncc(C(=O)O)c5C5CC5)c4)C3)c21 (racemic) [Example 24] :: 6.00 to 7.00
O=C(O)c1cnn(-c2cccc(C3CCC(n4ncc5c4CCCC5=O)C3)c2)c1C1CC1 (stereo not drawn) [Example 15] :: 6.00 to 7.00
Cn1cc(C2CC2c2c(C(=O)O)cnn2-c2cccc([C@@H]3CCC[C@H](n4ncc5c4C(C)(C)CC5)C3)c2)nn1 (stereo partly drawn) [Example 39] :: 7.00 to 8.00

Bench note, Keap1/NRF2 (Homo sapiens, UniProt Q14145): entry O=C(O)c1cnn(-c2cccc(C3CCCN(CC4CCCCC4)C3)c2)c1C1CC1 (stereo not drawn) [Example 28, Hydrochloride] , its pIC50 = < 5.00

Bench note, Keap1/NRF2 (Homo sapiens, UniProt Q14145): entry O=C(O)c1cnn(-c2cccc(C3CCCC(n4ncc5c4CCCCC5)C3)c2)c1C1CC1 (racemic) [Example 9] , its pIC50 = 6.00 to 7.00

====

# Tested on: NQO1 specific enzyme activity in BEAS-2B cells
# Experiment Description: BEAS-2B NQO1 MTT Assay
# Assay type: cell-based
# Test Parameters: Homo sapiens, BEAS-2B, 48 h, NQO1 specific activity induction
pEC50: −log10 of the molar value.
Parameter: pEC50

Observe how each entry below is paired with its result.
Cn1cc(C2CC2c2c(C(=O)O)cnn2-c2cccc([C@H]3CCC[C@H](n4ncc5c4C(C)(C)CC5)C3)c2)nn1 (stereo partly shown) :: 5.00 to 6.00
CCCC1CCCCC1N(C)C(=O)C1CCCC(c2cccc(-n3ncc(C(=O)O)c3C3CC3)c2)C1 (stereo not shown) :: 5.00 to 6.00
CC1(C)CCc2cnn([C@H]3CCC[C@@H](c4cccc(-n5ncc(C(=O)O)c5C5CC5)c4)C3)c21 (racemic) :: 5.00 to 6.00

The measured pEC50 associated with Cn1cc([C@@H]2C[C@H]2c2c(C(=O)O)cnn2-c2cccc(C3CCCN(C(=O)c4ccccc4)C3)c2)nn1 (stereo partly shown) reads 5.00 to 6.00

The measured pEC50 associated with O=C(O)c1cnn(-c2cccc(C3CCCC(C(=O)N4CCCC4C4CCC4)C3)c2)c1C1CC1 (racemic) reads 5.00 to 6.00

The measured pEC50 associated with Cn1cc([C@@H]2C[C@H]2c2c(C(=O)O)cnn2-c2cccc(C3CCCN(C(=O)C(C)(C)C)C3)c2)nn1 (stereo partly shown) reads 6.00 to 7.00

The measured pEC50 associated with Cn1cc([C@@H]2C[C@H]2c2c(C(=O)O)cnn2-c2cccc(N3CCC[C@H](CCC4CCCCC4)C3)c2)nn1 [Example 36c] reads 7.00 to 8.00

Sourced from patent US10351530B2
